Where these numbers come from: patent US20250188189A1

- Target Under Test: T1, plasma-derived human activated protein C (APC) (UniProt P04070 43-461)
- T1 chain: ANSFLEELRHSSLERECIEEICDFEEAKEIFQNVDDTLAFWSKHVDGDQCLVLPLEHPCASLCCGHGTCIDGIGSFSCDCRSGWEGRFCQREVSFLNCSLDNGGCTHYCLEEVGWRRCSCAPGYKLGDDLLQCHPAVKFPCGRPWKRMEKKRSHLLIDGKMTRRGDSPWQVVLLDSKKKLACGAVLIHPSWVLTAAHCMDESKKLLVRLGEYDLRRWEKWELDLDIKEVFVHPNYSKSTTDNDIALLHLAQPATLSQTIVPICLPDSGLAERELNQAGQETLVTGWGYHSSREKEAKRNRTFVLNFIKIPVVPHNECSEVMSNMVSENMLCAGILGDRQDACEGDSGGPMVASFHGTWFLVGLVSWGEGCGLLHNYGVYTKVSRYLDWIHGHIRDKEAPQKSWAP
- Protocol Description: SPR; head prints nM; kd/ka gives M
Hi there, I'd appreciate the recorded Kd for every entry that follows.
The figure you give is taken to be in nM; do not add the unit.

Query: Kd; subject: TPP-29850 (antibody, V domains shown) VH: EVQLVESGGGLVQPGGSLRLSCAASGFTFSNYYMNWVRQAPGKGLEWVSYISSSSSTIYYADSVKGRFTISRDDSKNSLYLQMNSLKTEDTAVYYCAREGDYFDYWGQGTLVTVSS VL: EIVLTQSPGTLSLSPGERATLSCRASQSVSSFGATFMHWYQQKPGQPPKLLIYLASWRASGVPDRFSGSGSGTDFTLKISRVEAEDVGVYYCQQNNEDPYTFGQGTKLEIKR 3.13

Query: Kd; subject: TPP-29864 (antibody, V domains shown) VH: EVQLVESGGGLVQPGGSLRLSCAASGFTFSNYYMNWVRQAPGKGLEWVSYISSSSSTIYYADSVKGRFTISRDDSKNSLYLQMNSLKTEDTAVYYCAREGDYFDYWGQGTLVTVSS VL: EIVLTQSPGTLSLSPGERATLSCRASQSVSSFGATFMHWYQQKPGQPPKLLIYLASRRASGVPDRFSGSGSGTDFTLKISRVEAEDVGVYYCQQNNEDPYTFGQGTKLEIKR 10.4
